# run description: Resistance index, ratio of IC50 for chloroquine-resistant Plasmodium falciparum Dd2 to IC50 for chloroquine-sensitive Plasmodium falciparum NF54
The following molecules are listed with their measured Ratio IC50 values.
In your answer, state the number alone without any accompanying words.

molecule="c1ccc(CNC(CNc2ccccc2)COc2cccc3cnccc23)cc1 (stereo not given)" experimental_endpoint="Ratio IC50" recorded_result=1.75

Could you tell me which Ratio IC50 is on file for COc1ccccc1CN1CC1COc1cccc2cnccc12 (stereo not given) ?
1.6

###

# run description: Resistance index, ratio of IC50 for chloroquine-resistant Plasmodium falciparum Dd2 to IC50 for chloroquine-sensitive Plasmodium falciparum NF54
experimental endpoint: Ratio IC50
When you answer, write just the number.

Look over these answered cases.
molecule="[Br-].c1ccc(CN2CC2COc2cccc3c[n+](Cc4ccccc4)ccc23)cc1 (stereo not drawn)" recorded_result=0.94
molecule="BrC(COc1cccc2c[n+](Cc3ccccc3)ccc12)CN(Cc1ccccc1)Cc1ccccc1.[Br-] (stereo not drawn)" recorded_result=5.32

Next molecule, Ratio IC50 to be filled in.
Fill in: Ratio IC50 of OCC(COc1cccc2cnccc12)NCc1ccccc1 (stereo not drawn) is ___
2.58
